- System: HCC1569
- Test method notes: H1.0 immunofluorescence intensity relative to DMSO (% of DMSO); higher = stronger H1.0 induction, active = 140 or more;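 also: TDF is a line of transformed human dermal fibroblasts of mesenchymal origin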
- Condition details: concentration: 10 µM; 24 h
Respond only with the outcome that fits, drawn from Yes (active), No (inactive)

>>> class_name("CCCCCCCCC=CCCCCCCCCCCCCCC(=O)O [15(Z)-Tetracosenoic acid]")
"No"
>>> class_name("CC(=O)C1(O)Cc2c(O)c3c(c(O)c2C(OC2CC(N)C(O)C(C)O2)C1)C(=O)c1ccccc1C3=O (centres undefined)")
"Yes"
>>> class_name("COc1ccc(C=Cc2cc(OC)cc(=O)o2)cc1")
"No"

Let us examine a further case.
q: Please share the test call associated with CCOC(=O)c1c(C)[nH]c(C=C2C(=O)Nc3ccccc32)c1C .
a: No

---

- Test system: TDF
- Test method notes: H1.0 immunofluorescence intensity relative to DMSO (% of DMSO); higher = stronger H1.0 induction, active = 120 or more
- Condition details: concentration: 10 µM; 24 h
Each record here notes measured H1.0 immunofluorescence intensity.
// response body must contain only the number

>>> assay_value("O=C1c2ccc(O)cc2OC(c2cc(O)c(O)c(O)c2)C1O (configuration not stated) [Dihydrorobinetine]")
95.3
>>> assay_value("O=C(NC(Cc1ccccc1)C(=O)CCl)OCc1ccccc1 (configuration not stated)")
120
>>> assay_value("O=C1NC(c2cccc([N+](=O)[O-])c2)=CCN1c1ccccc1O")
95.6
>>> assay_value("O=C1CCC(c2ccc(-n3ccnc3)cc2)=NN1")
103
>>> assay_value("CN1C(CC(=O)c2ccccc2)CCCC1CC(O)c1ccccc1 (configuration not stated)")
94.9

q: I'd like to know its H1.0 immunofluorescence intensity. The compound in question is CNC1(C)C2CCC(C2)C1(C)C.Cl (configuration not stated) [Mecamylamine hydrochloride]
a: 94.1

q: Then what about the compound CCCCOc1ccc(-c2cncc(C(=O)NCc3cccnc3N3CCOCC3)c2)cc1Cl ?
a: 98.3

q: # repeat for CC12C=CC(=O)C=C1CCC1C2C(O)CC2(C)C1CCC2(O)C(=O)CO (configuration not stated)
a: 84.9

q: Param item: CCCCCCC(C(C)O)n1cnc2c(N)ncnc21.Cl (stereo not drawn) [erythro-9-(2-Hydroxy-3-nonyl)adenine hydrochloride]
a: 90.1

---

Overview of recorded H1.0 immunofluorescence intensity for various molecules
- Test system: TDF
- Test method notes: H1.0 immunofluorescence intensity relative to DMSO (% of DMSO); higher = stronger H1.0 induction, active = 120 or more
- Condition details: concentration: 10 µM; 24 h
Answer using only a numeral; do not append any unit.

>>> assay_value("CCOc1nc2cccc(C(=O)O)c2n1Cc1ccc(-c2ccccc2-c2nn[nH]n2)cc1")
99.8
>>> assay_value("C=CC1(C)CCC2C(=CCC3C(C)(C(=O)O)CCCC23C)C1 (stereo not drawn)")
99
>>> assay_value("COc1ccc(/C=C\\c2cc(OC)c(OC)c(OC)c2)cc1OP(=O)([O-])[O-].[Na+].[Na+]")
197
>>> assay_value("COc1ccc2c(c1)CCC1C2CCC2(C)C(NCCCCCCN3C(=O)C=CC3=O)CCC12 (stereo not drawn)")
88.6
>>> assay_value("Cc1c(Cl)cccc1Nc1ccccc1C(=O)O")
104

q: Given C[C@@H](c1nc(-c2ccc(C#N)cc2)cs1)[C@](O)(Cn1cncn1)c1ccc(F)cc1F , state its recorded H1.0 immunofluorescence intensity.
a: 111

q: Note, next up: COC(=O)C1C(O)CCC2CN3CCc4c([nH]c5ccccc45)C3CC21.Cl (stereo not drawn) [Rauwolscine]
a: 95.5

q: Same lookup for CN(C)CCCN1c2ccccc2Sc2ccc(Cl)cc21.Cl [Chlorpromazine.HCl] , please.
a: 106
